target_under_test: human KDR (human, UniProt P35968 20-1356)
Sequence (P35968 20-1356): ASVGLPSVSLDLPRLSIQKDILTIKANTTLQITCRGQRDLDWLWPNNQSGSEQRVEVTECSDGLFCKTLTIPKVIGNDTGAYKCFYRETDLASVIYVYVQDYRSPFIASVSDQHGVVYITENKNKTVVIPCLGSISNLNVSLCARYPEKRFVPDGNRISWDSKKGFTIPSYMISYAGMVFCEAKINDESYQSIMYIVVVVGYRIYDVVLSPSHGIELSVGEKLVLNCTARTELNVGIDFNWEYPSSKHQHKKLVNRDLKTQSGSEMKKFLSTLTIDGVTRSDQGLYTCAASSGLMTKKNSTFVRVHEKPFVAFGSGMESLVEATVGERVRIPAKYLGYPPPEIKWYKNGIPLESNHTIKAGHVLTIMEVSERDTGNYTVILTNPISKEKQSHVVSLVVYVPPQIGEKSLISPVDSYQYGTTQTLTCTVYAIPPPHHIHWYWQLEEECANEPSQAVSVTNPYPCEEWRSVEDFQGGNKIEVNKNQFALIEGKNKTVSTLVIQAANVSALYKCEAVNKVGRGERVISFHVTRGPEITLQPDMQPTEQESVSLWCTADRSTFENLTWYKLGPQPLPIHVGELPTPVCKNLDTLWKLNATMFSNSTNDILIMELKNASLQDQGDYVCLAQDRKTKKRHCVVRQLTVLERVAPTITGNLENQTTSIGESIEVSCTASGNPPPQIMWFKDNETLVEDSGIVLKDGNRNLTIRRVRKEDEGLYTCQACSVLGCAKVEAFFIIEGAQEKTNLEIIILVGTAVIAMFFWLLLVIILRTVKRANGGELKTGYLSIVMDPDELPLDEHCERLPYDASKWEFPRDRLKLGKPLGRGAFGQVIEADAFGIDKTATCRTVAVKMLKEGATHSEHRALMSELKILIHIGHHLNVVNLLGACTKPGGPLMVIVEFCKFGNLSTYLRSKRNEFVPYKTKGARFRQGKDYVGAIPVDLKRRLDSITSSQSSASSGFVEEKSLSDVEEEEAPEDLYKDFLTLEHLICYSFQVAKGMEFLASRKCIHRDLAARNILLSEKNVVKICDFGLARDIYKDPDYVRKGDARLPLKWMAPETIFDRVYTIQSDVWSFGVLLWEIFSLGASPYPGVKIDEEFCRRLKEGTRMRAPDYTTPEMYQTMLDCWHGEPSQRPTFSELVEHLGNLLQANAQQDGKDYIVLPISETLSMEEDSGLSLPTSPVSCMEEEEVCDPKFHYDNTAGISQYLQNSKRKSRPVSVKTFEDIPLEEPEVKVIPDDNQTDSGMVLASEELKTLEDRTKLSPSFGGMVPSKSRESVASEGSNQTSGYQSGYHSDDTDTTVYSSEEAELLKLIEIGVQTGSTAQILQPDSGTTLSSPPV
test_details: cell-based or functional assay
experimental_readout: 6-keto Prostaglandin F1α release, EC50 (nM), N = 2

binder	experimental_result
32G7 (antibody, V domains shown, Fully human monoclonal antibody from a XenoMouse hybridoma (IgG2 or IgG4 strain), purified) VH: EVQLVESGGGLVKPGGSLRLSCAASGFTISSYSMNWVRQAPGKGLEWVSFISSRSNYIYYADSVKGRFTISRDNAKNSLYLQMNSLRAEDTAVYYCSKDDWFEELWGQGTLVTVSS VL: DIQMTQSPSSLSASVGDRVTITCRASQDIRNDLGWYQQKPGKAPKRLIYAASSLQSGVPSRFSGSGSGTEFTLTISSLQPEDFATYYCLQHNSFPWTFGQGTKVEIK	35.1
31E11 (antibody, V domains shown, Fully human monoclonal antibody from a XenoMouse hybridoma (IgG2 or IgG4 strain), purified) VH: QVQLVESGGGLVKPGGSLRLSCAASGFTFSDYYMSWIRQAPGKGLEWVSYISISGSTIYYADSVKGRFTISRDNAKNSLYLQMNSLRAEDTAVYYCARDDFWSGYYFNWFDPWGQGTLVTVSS VL: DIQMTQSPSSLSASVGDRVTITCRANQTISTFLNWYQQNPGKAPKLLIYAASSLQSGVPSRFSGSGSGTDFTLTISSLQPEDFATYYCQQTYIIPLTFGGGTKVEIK	6.4
32F4 (antibody, V domains shown, Fully human monoclonal antibody from a XenoMouse hybridoma (IgG2 or IgG4 strain), purified) VH: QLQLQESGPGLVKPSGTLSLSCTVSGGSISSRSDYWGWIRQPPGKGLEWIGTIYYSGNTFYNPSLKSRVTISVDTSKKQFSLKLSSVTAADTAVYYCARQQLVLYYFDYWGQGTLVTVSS VL: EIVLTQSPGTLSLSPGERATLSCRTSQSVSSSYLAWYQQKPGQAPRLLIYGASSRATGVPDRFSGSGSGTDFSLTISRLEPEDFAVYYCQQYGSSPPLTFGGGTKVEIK	4.6
33C3 (antibody, V domains shown, Fully human monoclonal antibody from a XenoMouse hybridoma (IgG2 or IgG4 strain), purified) VH: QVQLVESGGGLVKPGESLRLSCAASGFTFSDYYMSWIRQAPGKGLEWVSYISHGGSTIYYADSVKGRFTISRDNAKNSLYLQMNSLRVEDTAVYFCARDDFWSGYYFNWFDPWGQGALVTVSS VL: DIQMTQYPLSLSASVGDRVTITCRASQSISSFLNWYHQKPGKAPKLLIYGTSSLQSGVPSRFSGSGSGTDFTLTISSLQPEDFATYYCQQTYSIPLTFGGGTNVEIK	4.4
21H6 (antibody, V domains shown, Fully human monoclonal antibody from a XenoMouse hybridoma, purified) VH: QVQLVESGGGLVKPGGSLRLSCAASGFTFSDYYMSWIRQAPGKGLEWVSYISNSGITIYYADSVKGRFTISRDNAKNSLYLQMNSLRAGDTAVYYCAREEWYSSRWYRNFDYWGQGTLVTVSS VL: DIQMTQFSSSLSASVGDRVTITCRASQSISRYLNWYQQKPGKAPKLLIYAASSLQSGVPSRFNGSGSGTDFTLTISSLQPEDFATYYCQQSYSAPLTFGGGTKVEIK	5.4
